ASSAY SUMMARY: Drug-drug compatibility test under accelerated stability conditions
Assay type: physicochemical
CONDITION CONTEXT: Acceleration 3 week
Task for the reader: assign each of the following compounds its reported flexible substance.

// solved cases for flexible substance follow
| COMPOUND | REPORTED VALUE |
| --- | --- |
| CCCc1nc2c(C)cc(-c3nc4ccccc4n3C)cc2n1Cc1ccc(-c2ccccc2C(=O)O)cc1 [Com. Ex. 16, Telmisartan] | 0.1 or less |
| OC[C@H]1O[C@@H](c2ccc(Cl)c(Cc3ccc(O[C@H]4CCOC4)cc3)c2)[C@H](O)[C@@H](O)[C@@H]1O [Com. Ex. 17, Empagliflozin] | 5.0 or more |
| Cc1ccc([C@@H]2O[C@H](CO)[C@@H](O)[C@H](O)[C@H]2O)cc1Cc1ccc(-c2ccc(F)cc2)s1 [Com. Ex. 21, Canagliflozin] | 5.0 or more |

From here, focus on the item given below.
Using the record for CCCCC(=O)N(Cc1ccc(-c2ccccc2-c2nnn[nH]2)cc1)[C@H](C(=O)O)C(C)C [Com. Ex. 20, Valsartan] , report its flexible substance.
0.1 or more

----------
ASSAY SUMMARY: Drug-drug compatibility test under accelerated stability conditions
Assay type: physicochemical
CONDITION CONTEXT: Acceleration 4 week
PROPERTY: flexible substance

// solved cases for flexible substance follow
| COMPOUND | REPORTED VALUE |
| --- | --- |
| CCCc1nc2c(C)cc(-c3nc4ccccc4n3C)cc2n1Cc1ccc(-c2ccccc2C(=O)O)cc1 [Com. Ex. 16, Telmisartan] | 0.1 or less |
| OC[C@H]1O[C@@H](c2ccc(Cl)c(Cc3ccc(O[C@H]4CCOC4)cc3)c2)[C@H](O)[C@@H](O)[C@@H]1O [Com. Ex. 17, Empagliflozin] | 5.0 or more |
| CCCCC(=O)N(Cc1ccc(-c2ccccc2-c2nnn[nH]2)cc1)[C@H](C(=O)O)C(C)C [Com. Ex. 20, Valsartan] | 0.1 or more |

Using the record for Cc1ccc([C@@H]2O[C@H](CO)[C@@H](O)[C@H](O)[C@H]2O)cc1Cc1ccc(-c2ccc(F)cc2)s1 [Com. Ex. 21, Canagliflozin] , report its flexible substance.
5.0 or more

----------
ASSAY SUMMARY: Drug-drug compatibility test under accelerated stability conditions
Type: physicochemical
CONDITION CONTEXT: Acceleration 1 week

| COMPOUND | property |
| --- | --- |
| CCCCC(=O)N(Cc1ccc(-c2ccccc2-c2nnn[nH]2)cc1)[C@H](C(=O)O)C(C)C [Com. Ex. 20, Valsartan] | suitable |
| OC[C@H]1O[C@@H](c2ccc(Cl)c(Cc3ccc(O[C@H]4CCOC4)cc3)c2)[C@H](O)[C@@H](O)[C@@H]1O [Com. Ex. 17, Empagliflozin] | suitable |
| CCCc1nc2c(C)cc(-c3nc4ccccc4n3C)cc2n1Cc1ccc(-c2ccccc2C(=O)O)cc1 [Com. Ex. 16, Telmisartan] | suitable |

----------
ASSAY SUMMARY: Drug-drug compatibility test under accelerated stability conditions
Type: physicochemical
CONDITION CONTEXT: Acceleration 4 week

| COMPOUND | property |
| --- | --- |
| OC[C@H]1O[C@@H](c2ccc(Cl)c(Cc3ccc(O[C@H]4CCOC4)cc3)c2)[C@H](O)[C@@H](O)[C@@H]1O [Com. Ex. 17, Empagliflozin] | unsuitable |
| CCCc1nc2c(C)cc(-c3nc4ccccc4n3C)cc2n1Cc1ccc(-c2ccccc2C(=O)O)cc1 [Com. Ex. 16, Telmisartan] | suitable |
| Cc1ccc([C@@H]2O[C@H](CO)[C@@H](O)[C@H](O)[C@H]2O)cc1Cc1ccc(-c2ccc(F)cc2)s1 [Com. Ex. 21, Canagliflozin] | unsuitable |
| CCCCC(=O)N(Cc1ccc(-c2ccccc2-c2nnn[nH]2)cc1)[C@H](C(=O)O)C(C)C [Com. Ex. 20, Valsartan] | suitable |

----------
ASSAY SUMMARY: Drug-drug compatibility test under accelerated stability conditions
Type: physicochemical
CONDITION CONTEXT: Acceleration 3 week
PROPERTY: property

| MOLECULE | REPORTED VALUE |
| --- | --- |
| CCCCC(=O)N(Cc1ccc(-c2ccccc2-c2nnn[nH]2)cc1)[C@H](C(=O)O)C(C)C [Com. Ex. 20, Valsartan] | suitable |
| OC[C@H]1O[C@@H](c2ccc(Cl)c(Cc3ccc(O[C@H]4CCOC4)cc3)c2)[C@H](O)[C@@H](O)[C@@H]1O [Com. Ex. 17, Empagliflozin] | unsuitable |
| CCCc1nc2c(C)cc(-c3nc4ccccc4n3C)cc2n1Cc1ccc(-c2ccccc2C(=O)O)cc1 [Com. Ex. 16, Telmisartan] | suitable |
| Cc1ccc([C@@H]2O[C@H](CO)[C@@H](O)[C@H](O)[C@H]2O)cc1Cc1ccc(-c2ccc(F)cc2)s1 [Com. Ex. 21, Canagliflozin] | unsuitable |

----------
ASSAY SUMMARY: Drug-drug compatibility test under accelerated stability conditions
Format: physicochemical
CONDITION CONTEXT: Acceleration 2 week
Task for the reader: assign each of the following compounds its reported flexible substance.

| COMPOUND | flexible substance |
| --- | --- |
| Cc1ccc([C@@H]2O[C@H](CO)[C@@H](O)[C@H](O)[C@H]2O)cc1Cc1ccc(-c2ccc(F)cc2)s1 [Com. Ex. 21, Canagliflozin] | 5.0 or more |
| OC[C@H]1O[C@@H](c2ccc(Cl)c(Cc3ccc(O[C@H]4CCOC4)cc3)c2)[C@H](O)[C@@H](O)[C@@H]1O [Com. Ex. 17, Empagliflozin] | 1.0 or more |
| CCCc1nc2c(C)cc(-c3nc4ccccc4n3C)cc2n1Cc1ccc(-c2ccccc2C(=O)O)cc1 [Com. Ex. 16, Telmisartan] | 0.1 or less |

From here, focus on the item given below.
Using the record for CCCCC(=O)N(Cc1ccc(-c2ccccc2-c2nnn[nH]2)cc1)[C@H](C(=O)O)C(C)C [Com. Ex. 20, Valsartan] , report its flexible substance.
0.1 or more

----------
ASSAY SUMMARY: Drug-drug compatibility test under accelerated stability conditions
Assay type: physicochemical
CONDITION CONTEXT: Acceleration 1 week
PROPERTY: flexible substance

| SMILES DATA | flexible substance |
| --- | --- |
| CCCCC(=O)N(Cc1ccc(-c2ccccc2-c2nnn[nH]2)cc1)[C@H](C(=O)O)C(C)C | 0.1 or more |

Please supply flexible substance for each of the following items, keeping them in order.
1. Cc1ccc([C@@H]2O[C@H](CO)[C@@H](O)[C@H](O)[C@H]2O)cc1Cc1ccc(-c2ccc(F)cc2)s1
2. OC[C@H]1O[C@@H](c2ccc(Cl)c(Cc3ccc(O[C@H]4CCOC4)cc3)c2)[C@H](O)[C@@H](O)[C@@H]1O
3. CCCc1nc2c(C)cc(-c3nc4ccccc4n3C)cc2n1Cc1ccc(-c2ccccc2C(=O)O)cc1

["1.0 or less", "1.0 or less", "0.1 or less"]

----------
ASSAY SUMMARY: Drug-drug compatibility test under accelerated stability conditions
Type: physicochemical
CONDITION CONTEXT: Acceleration 2 week
PROPERTY: property

| SMILES DATA | REPORTED VALUE |
| --- | --- |
| CCCCC(=O)N(Cc1ccc(-c2ccccc2-c2nnn[nH]2)cc1)[C@H](C(=O)O)C(C)C | suitable |
| OC[C@H]1O[C@@H](c2ccc(Cl)c(Cc3ccc(O[C@H]4CCOC4)cc3)c2)[C@H](O)[C@@H](O)[C@@H]1O | suitable |
| CCCc1nc2c(C)cc(-c3nc4ccccc4n3C)cc2n1Cc1ccc(-c2ccccc2C(=O)O)cc1 | suitable |
